target: T1, human α4β7 integrin on cells (human, UniProt P13612 34-1032; P26010 20-798)
T1 construct: whole, on cells; also called α4β7 cell (Hu); RPMI8866 cells
testProtocol: RPMI8866 cell adhesion to MAdCAM-1
pIC50: −log10 of the molar value. Bridge positions count the residues as written; N and C are the ends. Square brackets hold non-standard residues; d marks the D form. NMeR = CN[C@@H](CCCNC(=N)N)C(=O)O; DIG = diglycolic acid (linker); Pen = CC(C)(S)[C@H](N)C(=O)O

binder	pIC50
Ac-[Pen][NMeR]SDTL[Pen]WP[dK](DIG)-NH2 (disulfide 1-7; also: homodimer (…)2 DIG: the two subunits are joined through the K10 NZ by the DIG linker) [SEQ ID NO: 94]	< 7.00
XRSDTLXWK (not fully specified; (Ac Pen N-Me-R S D T L Pen W N-Me-K NH2)2 DIG; disulfide Pen-Pen) [SEQ ID NO: 77]	< 7.00
Ac-C[NMeR]SDTL[Pen]W[dK]-NH2 (disulfide 1-7; not fully specified (residue 9); printed as (Ac C N-Me-R S D T L Pen W k NH2)2 PEG25, disulfide C-Pen; also: dimer, two subunits joined by PEG25 linker) [SEQ ID NO: 37]	< 7.00
XRSDTLXWK (not fully specified; (Ac Pen N-Me-R S D T L Pen W k OH)2 DIG; disulfide Pen-Pen) [SEQ ID NO: 76]	< 8.00
Ac-[Pen][NMeR]SDTL[Pen]W[dE][dK]-NH2 (disulfide 1-7; not fully specified (residue 10); printed as (Ac Pen N-Me-R S D T L Pen W e k NH2)2 IDA Biotine, disulfide Pen-Pen; also: homodimer via IDA linker bearing biotin) [SEQ ID NO: 71]	< 7.60
Ac-[Pen][NMeR]SDTL[Pen]W[dE][dK]-NH2 (disulfide 1-7; not fully specified (residue 10); printed as (Ac Pen N-Me-R S D T L Pen W e k NH2)2 IDA, disulfide Pen-Pen; also: homodimer via IDA linker) [SEQ ID NO: 70]	< 7.60
